Test: Cmax in Sprague-Dawley rat at 0.3 mg/kg, iv by LC-MS/MS analysis
Assay type: ADME, organism-based
Design: dose 0.3 mg/kg, route iv
Conditions: in vivo
measurement.name: Cmax
Please give the number followed by its unit.

State its Cmax for this compound: `O=S1(=O)NCc2cccc(-c3ccc(Oc4ccccc4)cc3)c2O1`
246 ng/mL

----------
Experiment: AUC (0 to t) in Sprague-Dawley rat at 3 mg/kg, po by LC-MS/MS analysis
Assay type: ADME, organism-based
Parameters: dose 3 mg/kg, route po
Details: in vivo
measurement.name: AUC(0-t) (ng·h/mL)
Note: unit ng·h/mL is implicit; provide only the numeric part.

Fill in AUC(0-t) for record `O=S1(=O)NCc2cccc(-c3ccc(Oc4ccccc4)cc3)c2O1`
265

----------
Biological target: Glutamate receptor ionotropic, AMPA (Rattus norvegicus) (UniProt P19491+P19492+P19493+P19490)
Assay: Agonist activity at AMPA receptor in rat Primary neuron cells assessed as increase in fluorescence level at 1 uM incubated for 1 hr by calcium 2+ influx assay relative to s-AMPA coupled TAK-137
Assay type: cell-based
measurement.name: Activity (%)
Field: numeric (%). Do not append units.

Return value of Activity for input `CC(C)(C)c1ccc(-c2cccc3c2OS(=O)(=O)NC3)cc1` , no commentary.
29.4

Tell me its Activity given Cc1ccc(-c2ccc(-c3cccc4c3OS(=O)(=O)NC4C)cc2)cc1 (stereo unspecified) as the entry.
0.1

Quickly give me recorded Activity for `O=S1(=O)NCc2cccc(-c3ccc(-c4ccc(OC(F)(F)F)cc4)cc3)c2O1`
-1.5

Given `CC(C)(C)c1ccc(-c2ccc(-c3cccc4c3OS(=O)(=O)NC4)cc2)cc1` , respond with its Activity.
-2

Note down Activity recorded for `COc1ccc(-c2cccc3c2OS(=O)(=O)NC3)cc1F`
19.2

Please give measured Activity of the following entry: `Cc1ccc(-c2cccc3c2OS(=O)(=O)NC3)cc1`
7.3

Give me measured Activity, please, for this molecule: `CC(C)Oc1ccc(-c2cccc3c2OS(=O)(=O)NC3)cc1`
13.2

Report Activity, nothing else, for this molecule: `O=S1(=O)NCc2cccc(-c3ccc4c(c3)OCCO4)c2O1`
19.5

Indicate the recorded Activity value for this molecule: `COc1ccc(-c2cccc3c2OS(=O)(=O)NC3)cc1C(F)(F)F`
1.9

Identify measured Activity associated with `O=S1(=O)NCc2cccc(-c3ccc(-c4cccc(F)c4)cc3)c2O1`
3.5

For the molecule `Cc1ccc(-c2ccc(-c3cccc4c3OS(=O)(=O)NC4)c(F)c2)cc1` , give its reported Activity.
1.4

----------
Assay: Ratio of drug concentration in brain to plasma in Sprague-Dawley rat at 1 mg/kg, po measured after 8 hrs by LC-MS/MS analysis
Format: ADME, organism-based
Conditions: read-out: BPR
measurement.name: Kp at 8 h
Just the number, please, no unit after it.

Report Kp at 8 h for `O=S1(=O)NCc2cccc(-c3ccc(-c4ccccc4F)cc3)c2O1`
1.5

----------
Assay: Volume of distribution at steady state in Sprague-Dawley rat at 0.1 mg/kg, iv by LC-MS/MS analysis
Assay type: ADME, organism-based
Conditions: in vivo, read-out: Vdss
measurement.name: Vd (L/kg)
API: value field is a number in L/kg; no unit string.

Please report Vd for the following compound: `O=S1(=O)NCc2cccc(-c3ccc(-c4ccccc4F)cc3)c2O1`
1.72
